Sourced from the antibiotic and cytotoxicity screens of Wong et al. (2023)

Test system: S. aureus RN4220
Assay: growth inhibition call (relative growth <= 0.2)
Details: 50 µM
Screen size: about 39,000 compounds; about 500 (1.3%) were called active. What follows is part of a selection rich in actives, with near analogues and random picks from the rest.
// one of active, inactive, no free text

Tell me the assay call for C[C@H]1CN([C@@H](C)CO)C(=O)c2cc(NC(=O)Nc3ccc(C(F)(F)F)cc3)ccc2O[C@@H]1CN(C)Cc1ccccc1 please.
inactive

Could you please tell me the result logged for C[C@H](CO)N1C[C@H](C)[C@@H](CN(C)Cc2ccc3c(c2)OCO3)Oc2ccc(NC(=O)Nc3ccc(C(F)(F)F)cc3)cc2C1=O in this assay?
inactive

Which result was noted for this molecule in the test: Cc1ccc(S(=O)(=O)N(C)C[C@@H]2OCCCC[C@H](C)Oc3ccc(NC(=O)C4CCCCC4)cc3C(=O)N([C@@H](C)CO)C[C@@H]2C)cc1
inactive

Could you kindly confirm the outcome this assay logged for COc1ccc(CN(C)C[C@@H]2Oc3ccc(NC(=O)Nc4ccc(C(F)(F)F)cc4)cc3C(=O)N([C@H](C)CO)C[C@@H]2C)cc1 ?
active

Given C[C@@H]1CN([C@@H](C)CO)C(=O)c2cc(NC(=O)Nc3ccc(C(F)(F)F)cc3)ccc2O[C@@H]1CN(C)Cc1ccc2c(c1)OCO2 , state the outcome it received in this test.
inactive

How was COc1ccc(CN(C)C[C@@H]2Oc3ccc(NC(=O)Nc4ccc(C(F)(F)F)cc4)cc3C(=O)N([C@@H](C)CO)C[C@@H]2C)cc1 classified in this test?
inactive

Recorded test outcome, item CO[C@@H]1CN(C)C(=O)c2ccc(NS(=O)(=O)CC(F)(F)F)cc2OC[C@H](C)N(Cc2nccs2)C[C@H]1C
inactive

====

Tested on: S. aureus RN4220
Assay: growth inhibition call (relative growth <= 0.2)
Details: 50 µM
The whole screen tested about 39,000 compounds, of which about 500 (1.3%) were called active. What follows is part of a selection rich in actives, with near analogues and random picks from the rest.
Select the matching outcome among true (active), false (inactive)

Which outcome was assigned to CC[C@H]1OC(=O)[C@H](C)[C@@H](O[C@H]2C[C@@](C)(OC)[C@@H](O)[C@H](C)O2)[C@H](C)[C@@H](O[C@@H]2O[C@H](C)C[C@H](N(C)C)[C@H]2O)[C@](C)(O)C[C@@H](C)[C@@H]2N[C@@H](COCCOC)O[C@H]([C@H]2C)[C@]1(C)O in this test?
true

Hi, sorry to bother you, what did the test record for C[C@@H](C[N+](C)(C)C)OC(N)=O ?
false

For this compound, state the assay outcome: O=c1cc(-c2ccccc2O)oc2cc(O)ccc12
false

GET /call?item= C[C@H]1CN([C@@H](C)CO)C(=O)Cc2cc(NC(=O)Cn3cnnn3)ccc2O[C@H]1CN(C)C(=O)Nc1ccccc1 returns the recorded outcome of this test.
false

====

Tested on: S. aureus RN4220
Assay: growth inhibition call (relative growth <= 0.2)
Conditions: 50 µM
In all, about 39,000 compounds went through this assay and about 500 (1.3%) were called active. This excerpt belongs to a sample that is enriched for actives.
Bench note: report the call from 1 (active), 0 (inactive)

Status in this test for COc1ccc(S(=O)(=O)N(C)C[C@H]2OCCCC[C@H](C)Oc3ccc(NS(C)(=O)=O)cc3C(=O)N([C@H](C)CO)C[C@H]2C)cc1 ?
0

# outcome recorded in this test, key = CCCNC(=O)N1C[C@@H](O)COC[C@H]2O[C@H](CC(=O)NCCCN3CCOCC3)CC[C@@H]21
0

Which outcome was entered for the compound C[C@@H]1CN([C@H](C)CO)C(=O)CCCn2nncc2CO[C@H]1CN(C)C(=O)Nc1cccc(C(F)(F)F)c1 in this test?
1

How did this test come out for C[C@H]1CN([C@@H](C)CO)C(=O)c2cc(NC(=O)Cc3ccccc3)ccc2O[C@H]1CN(C)C(=O)Nc1cccc2ccccc12 ?
0

Record request — test call for CC(C)(c1cc(Br)c(O)c(Br)c1)c1cc(Br)c(O)c(Br)c1
1

Which result was noted for this compound in the test: C[C@H]1CN([C@@H](C)CO)C(=O)c2cc(NC(=O)NC3CCCCC3)ccc2O[C@H]1CN(C)C(=O)Nc1cccc2ccccc12
0

Recorded call for COCCn1c(=NN)[nH]c2ccsc2c1=O ?
0

# fetch the recorded call for CN1C(=O)c2cc(NS(C)(=O)=O)ccc2OC[C@H]2O[C@@H](CC(=O)N3CCOCC3)CC[C@H]21 here
0

====

Tested on: S. aureus RN4220
Test: growth inhibition call (relative growth <= 0.2)
Conditions: 50 µM
Screen size: about 39,000 compounds; about 500 (1.3%) were called active. Shown is part of a subset that was picked to be rich in actives.
READOUT: growth inhibition call

Example entries begin here.
Reported growth inhibition call for CO[C@@H](CN(C)C(=O)C1CCOCC1)[C@H](C)CN(C(=O)Nc1ccc(C(F)(F)F)cc1)[C@@H](C)CO was active

Form: compound = CO[C@H](CN(C)C(=O)C1CCOCC1)[C@H](C)CN(C(=O)Nc1ccc(C(F)(F)F)cc1)[C@@H](C)CO ; growth inhibition call = active

Looking up CO[C@H](CN(C)C(=O)Nc1ccc(C(F)(F)F)cc1)[C@@H](C)CN(Cc1ccccc1Cl)[C@H](C)CO , I found its growth inhibition call recorded as inactive

The measured growth inhibition call associated with CO[C@@H](CN(C)C(=O)Nc1ccc(C(F)(F)F)cc1)[C@H](C)CN(Cc1ccccc1Cl)[C@@H](C)CO reads inactive

Attention now shifts to the item below.
// sample CC1=CC(=O)c2ccccc2C1=O , its growth inhibition call was active

====

System: S. aureus RN4220
Test: growth inhibition call (relative growth <= 0.2)
Details: 50 µM
About 500 (1.3%) of roughly 39,000 compounds were called active. This is one part of a sample in which actives are shown more often than they occur.
Valid outcomes are listed here; reply with one: active, inactive

Hi team, can someone confirm the assay call for CCCN(C)C[C@H]1OCCCC[C@@H](C)Oc2ccc(NC(=O)Nc3ccc(F)cc3)cc2C(=O)N([C@@H](C)CO)C[C@H]1C ?
active

Tell me the recorded outcome of this test for CCCN(C)C[C@@H]1OCCCC[C@@H](C)Oc2ccc(NC(=O)Nc3ccc(C(F)(F)F)cc3)cc2C(=O)N([C@H](C)CO)C[C@H]1C .
active

// outcome(item) with item = CCCN(C)C[C@H]1OCCCC[C@H](C)Oc2ccc(NC(=O)Nc3ccc(C(F)(F)F)cc3)cc2C(=O)N([C@@H](C)CO)C[C@H]1C
active

Given CCCN(C)C[C@@H]1OCCCC[C@@H](C)Oc2ccc(NC(=O)Nc3ccc(F)cc3)cc2C(=O)N([C@H](C)CO)C[C@H]1C , state the outcome it received in this test.
inactive

====

System: S. aureus RN4220
Assay: growth inhibition call (relative growth <= 0.2)
Settings: 50 µM
Hit rate of the full screen: of about 39,000 compounds, about 500 (1.3%) were called active. Only a selection was taken, and actives are over-represented in it overall.
The categories you may choose from are active, inactive

Kindly provide the recorded test outcome for the following compound: O=C(Nc1ccc(Cl)cc1C(=O)c1ccc(Cl)cc1)c1cc(Br)ccc1NS(=O)(=O)c1ccc(Cl)cc1
inactive

Recorded call for O=C(Nc1ccc([N+](=O)[O-])cc1Cl)c1cc(Cl)ccc1O ?
inactive

Look up the recorded call for CNS(=O)(=O)c1ccc(Cl)c(C(N)=O)c1 in this test.
inactive

GET /call?item= O=C(O)C1C(=CCO)OC2CC(=O)N21.[LiH] (stereo unspecified) returns the recorded outcome of this test.
active

Which outcome was entered for the compound COc1ccc(C#Cc2ccc3c(c2)[C@]2(C(=O)N3)[C@H](c3ccc(O)cc3)N3[C@H](c4ccccc4)[C@H](c4ccccc4)OC(=O)[C@H]3[C@@H]2C(=O)O)cc1 in this test?
inactive

Could you please tell me the result logged for Cc1ccc(S(=O)(=O)Nc2ccc3c(c2)C(=O)N([C@@H](C)CO)C[C@@H](C)[C@@H](CN(C)C(=O)Nc2ccc(F)cc2)OCCCC[C@H](C)O3)cc1 in this assay?
inactive

Please indicate how the test categorized C[C@@]1(F)[C@H](O)[C@@H](CO)O[C@H]1n1ccc(N)nc1=O .
inactive

I would be grateful if you could indicate the recorded call for O=C1O[C@H](c2ccccc2)[C@H](c2ccccc2)N2[C@H]1[C@@H](C(=O)O)[C@]1(C(=O)Nc3ccc(Cl)cc31)[C@H]2c1ccc(F)cc1 .
active

Please indicate how the test categorized Cc1ccc(S(=O)(=O)N(C)C[C@H]2Oc3ccc(NC(=O)NC(C)C)cc3CC(=O)N([C@H](C)CO)C[C@H]2C)cc1 .
inactive

Please indicate how the test categorized O=C(O)[C@@H]1C(=CCO)O[C@H]2CC(=O)N12 .
inactive

Please let me know the test result on file for C[C@H](CO)N1C[C@H](C)[C@H](CN(C)Cc2ccc(Oc3ccccc3)cc2)Oc2ccc(NS(=O)(=O)c3ccc(F)cc3)cc2CC1=O .
inactive

What outcome does the record of this test show for C[C@H](CO)N1C[C@H](C)[C@@H](CN(C)Cc2ccncc2)Oc2c(NS(=O)(=O)c3cn(C)cn3)cccc2C1=O ?
inactive

What call does the record list for COCCOC(=O)N1C(=O)[C@@]2(c3cc(C#Cc4ccc(OC)cc4)ccc31)[C@H](c1ccc(O)cc1)N1[C@H](c3ccccc3)[C@H](c3ccccc3)OC(=O)[C@H]1[C@@H]2C(N)=O ?
inactive

What did this assay record as the result for O=C(Nc1cc(Cl)ccc1Cl)c1cc(Br)ccc1NS(=O)(=O)c1ccc(Cl)c([N+](=O)[O-])c1 ?
active

State the result this test recorded for Cl.Nc1ccn(C2OC(CO)C(O)C2(F)F)c(=O)n1 (stereo unspecified) .
active

Which outcome was assigned to O=C(Nc1cc(Cl)ccc1Cl)c1cc(Cl)ccc1NS(=O)(=O)c1ccc(Cl)c([N+](=O)[O-])c1 in this test?
active
